- Assay text: chemical genetic growth profiling, strain panel (AID 1159580);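 note: tested at 20 µM; growth read once vehicle control cultures reached saturation at 30 °C; 1 = growth at the plate median or of vehicle wells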
- Measurement parameters: S. cerevisiae deletion strains, growth OD, locus YGR135W, strain pre9, stronger effect = lower value
In all, about 5,500 compounds went through this assay and about 2,000 (36%) were called active. Another 18% or so got no clear call; they are omitted. Some of the results follow.
Mark 1 (yes) only when normalized growth stays strictly below 1. Values equal to the cut-off are 0 (no).

A selection of reference data follows.
Q: Input `O=C1OC(c2ccc(O)cc2)(c2ccc(O)cc2)c2ccccc21` ; condition: normalized growth strictly below 1. Does it hold?
A: 1 (yes)

Q: Input C=C1CCC2C(CC2(C)C)C(=C)CC/C1=N\O (stereo not drawn) ; condition: normalized growth strictly below 1. Does it hold?
A: 1 (yes)

Q: Input C=C1CCC(C2CC(=O)OC2=O)C(=O)CCC2C1CC2(C)C (stereo not drawn) ; condition: normalized growth strictly below 1. Does it hold?
A: 0 (no)

Q: Input `COc1ccc2c(c1)O[C@H]1c3ccc(OC)cc3OC[C@@H]21` ; condition: normalized growth strictly below 1. Does it hold?
A: 1 (yes)

Q: Input COc1ccc2c(c1O)OCC1c3cc4c(cc3OC21)OCO4 (stereo not drawn) ; condition: normalized growth strictly below 1. Does it hold?
A: 1 (yes)

Q: Input `COc1ccc(CCN2CCC(Nc3nc4ccccc4n3Cc3ccc(F)cc3)CC2)cc1` ; condition: normalized growth strictly below 1. Does it hold?
A: 1 (yes)

Continuing:
Q: Input `Cc1c(Cl)cccc1Nc1ccccc1C(=O)O` ; condition: normalized growth strictly below 1. Does it hold?
A: 1 (yes)

Q: Input `Oc1ccc(Cl)cc1Cc1cc(Cl)ccc1O` ; condition: normalized growth strictly below 1. Does it hold?
A: 1 (yes)

Q: Input `Cc1ccc(Cl)c(Nc2ccccc2C(=O)O)c1Cl` ; condition: normalized growth strictly below 1. Does it hold?
A: 1 (yes)

Q: Input CC1(C)OC(=O)C=CC2(C)C1CC(O)C1(C)C2CCC2(C)C(c3ccoc3)OC(=O)C3OC321 (stereo not drawn) ; condition: normalized growth strictly below 1. Does it hold?
A: 0 (no)

====

- Assay text: chemical genetic growth profiling, strain panel (AID 1159580);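 note: tested at 20 µM; growth read once vehicle control cultures reached saturation at 30 °C; 1 = growth at the plate median or of vehicle wells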
- Measurement parameters: S. cerevisiae deletion strains, growth OD, locus YPL055C, strain LGE1
Screen size: about 5,500 compounds; about 2,000 (36%) were called active. About 18% were inconclusive and are not listed. No stated cut-off is given here; in the data, active means normalized growth mostly below about 0.91 (no sharp cut-off); inconclusive means no clear call, values can overlap the other calls; inactive means mostly above about 0.92. The list shows a part of the results.
The reply should be one of these categories: active, inactive

Q: Returns: the outcome recorded for C/C1=C\CCC(=O)C2CC(C)(C)C2CC1 (centres undefined) in this assay.
A: inactive

Q: Returns: the outcome recorded for C=C1CCC2C(CC2(C)C)C(=C)CC/C1=N\O (centres undefined) in this assay.
A: inactive

Q: Returns: the outcome recorded for `Cc1cccc(C(=O)O)c1O` in this assay.
A: inactive

Continuing:
Q: Returns: the outcome recorded for C#CCCCCCCCCCCCC(=O)CC(O)COC(C)=O (centres undefined) in this assay.
A: active

====

- Assay text: chemical genetic growth profiling, strain panel (AID 1159580);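 note: tested at 20 µM; growth read once vehicle control cultures reached saturation at 30 °C; 1 = growth at the plate median or of vehicle wells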
- Measurement parameters: S. cerevisiae deletion strains, growth OD, locus YGR135W, strain pre9, stronger effect = lower value
About 2,000 (36%) of roughly 5,500 compounds were called active. Roughly 18% stayed inconclusive and do not appear here. The list shows a part of the results.
Each entry below carries its recorded normalized growth.
Write the value as a bare number.

Q: Reported normalized growth for CC1C[C@H]2CC(=O)[C@H]3CCCN4CCC[C@H]2[C@]34C1 (stereo partly drawn) : what is it?
A: 1.01

Q: Reported normalized growth for CC1(C)C2(Cl)C(Cl)C(Cl)C(Cl)(C(Cl)Cl)C1(Cl)C2Cl (stereo not drawn) : what is it?
A: 0.951

Q: Reported normalized growth for `CC(=O)OCC[C@H](C)CCC=C(C)C` : what is it?
A: 1.06

Q: Reported normalized growth for O=C1CC2OCC=C3CN4CC[C@]56c7ccccc7N1C5[C@H]2[C@H]3CC46 (stereo partly drawn) : what is it?
A: 0.982

Q: Reported normalized growth for `COc1cc(-c2coc3cc(OCc4ccccc4)c(OC)c(O)c3c2=O)cc(O)c1OC` : what is it?
A: 0.836

Continuing:
Q: Reported normalized growth for `Cc1cccc(C)c1NC1=NCCCS1` : what is it?
A: 0.967

Q: Reported normalized growth for `COc1c2ccoc2c(OC)c2oc(=O)ccc12` : what is it?
A: 0.999

Q: Reported normalized growth for `O=c1cc[nH]c(=S)[nH]1` : what is it?
A: 1.02

Q: Reported normalized growth for `Nc1nc2ncc(=O)[nH]c2c(=O)[nH]1` : what is it?
A: 1.02

Q: Reported normalized growth for C#CCCCCCCCCCCCC(=O)CC(O)COC(C)=O (stereo not drawn) : what is it?
A: 0.739
